The reported numbers originate from ChEMBL document CHEMBL2380295.

# Method: Cytotoxicity against human Raji cells assessed as cell viability at 10^-6 M
# Assay type: cell-based
# Protocol conditions: read-out: Activity
Attribute measured: viability at 1 µM (%)

smiles=CC1(C)CC[C@@H]2CC(=O)O[C@@H](CO)CC(=O)O[C@@H]3C[C@@H](CCCCc4c(Br)cc(Br)c(O)c4Br)O[C@@]1(C3)O2 attribute_measured="viability at 1 µM" result_units=% recorded_number=40
smiles=CC1(C)CC[C@@H]2CC(=O)O[C@@H](CO)CC(=O)O[C@@H]3C[C@@H](CCCCc4ccc(I)c(O)c4)O[C@@]1(C3)O2 attribute_measured="viability at 1 µM" result_units=% recorded_number=40
smiles=CC1(C)CC[C@@H]2CC(=O)O[C@@H](CO)CC(=O)O[C@@H]3C[C@@H](CCCCc4cc(O)c(Br)cc4Br)O[C@@]1(C3)O2 attribute_measured="viability at 1 µM" result_units=% recorded_number=40
